- experiment.summary: CD137 reporter assay co-culture with tumor cells (Promega CD137 luciferase reporter, Jurkat cells)
- Type: cell-based
- measurement.conditions: EphA2 cell line PC-3; read-out: Emax (Fold Induction over background)
Starred links: 1 amine or outer side, 2 acyl side, 3 side chain; linkers in the order of their positions; H or OH if unused. Positions of bridges follow the written chain, without caps; N, C: chain ends. Non-standard residues stand in square brackets, D forms with d. Chains are numbered I, II in the order given. X1 = O=C(CCOCCOCCOCCN(CCOCCOCCOCCn1cc(CCC(=O)[*:2])nn1)CCOCCOCCOCCn1cc(CCC(=O)[*:3])nn1)[*:1]; TATA = O=C(CC[*:1])N1CN(C(=O)CC[*:2])CN(C(=O)CC[*:3])C1; d1Nal = N[C@H](Cc1cccc2ccccc12)C(=O)O; Hyp = O=C(O)[C@@H]1C[C@@H](O)CN1; hArg = N=C(N)NCCCC[C@H](N)C(=O)O; tBuAla = CC(C)(C)C[C@H](N)C(=O)O; Nle = CCCC[C@H](N)C(=O)O
attribute.measured: fold induction

Recorded result, I: A[hArg]DC[Hyp]LVNPLCLEP[d1Nal]WTC-NH2 / II: Ac-C[tBuAla]PE[dK]PYCFADPY[Nle]CA-NH2 / III: Ac-C[tBuAla]PE[dK]PYCFADPY[Nle]CA-NH2 (linker I:4-I:11-I:18, II:1-II:8-II:15, III:1-III:8-III:15 via TATA (inferred); linker I:N-II:5-III:5 via X1 (inferred)) [BCY13272] , fold induction: 44.2

Where do the numbers come from? From patent US12606594B2.
